Experiment: IN Cell qHTS Assay for Inhibitors of the mTORC1 Signaling Pathway in MEF (Tsc2-/-, p53-/-) Cells: Sytravon; also: nearly all actives have a fitted effect of over 60% in size; also: potency is read from the fitted curve at half-maximal effect
Settings: phospho-rpS6 immunofluorescence, 24 h; series mostly up to 38.3 µM
Hit rate of the full screen: of about 2,100 compounds, about 210 (10%) were called active. Inconclusive results (about 53%) are left out. The list shows a part of the results.
recorded-metric: Potency

A selection of reference data follows.
structure-as-smiles: CCCCc1ccc(C(=O)Nc2ccc3nc(N4CCN(CC)CC4)cc(C)c3c2)cc1
value-observed: 2.61 µM (active)
//
structure-as-smiles: Cc1ccc(S(=O)(=O)N2CCc3cc(C(=O)Nc4ccc(C(F)(F)F)cc4)ccc32)cc1
value-observed: inactive
//
structure-as-smiles: CCN1CCN(c2cc(C)c3cc(NC(=O)/C=C/c4ccc(C)cc4)ccc3n2)CC1
value-observed: 5.21 µM (active)
//
structure-as-smiles: O=C(CCCn1c(=O)c2ccccc2n(Cc2cccc(Cl)c2)c1=O)NCCc1ccc(Cl)cc1
value-observed: inactive
//
structure-as-smiles: O=C(Cn1c(=O)c2ccccc2n(CC(=O)Nc2ccc(Cl)cc2)c1=O)NCCc1ccccc1
value-observed: 14.7 µM (active)

Please look at the following compound next.
Look up Potency for this compound: `O=C(COc1ccc2oc3c(c2c1)CCCC3)Nc1cccc(Br)c1`
inactive

Reference source for all entries: PubChem BioAssay AID504465
